- MEASURED TARGET: T1, human interleukin 12 (human, UniProt P29459 23-219; P29460 23-328)
- T1 construct: heterodimer of p35 and p40 linked by a disulfide bridge; also called hIL-12; IL-12
- T1 sequence (looked up) 1: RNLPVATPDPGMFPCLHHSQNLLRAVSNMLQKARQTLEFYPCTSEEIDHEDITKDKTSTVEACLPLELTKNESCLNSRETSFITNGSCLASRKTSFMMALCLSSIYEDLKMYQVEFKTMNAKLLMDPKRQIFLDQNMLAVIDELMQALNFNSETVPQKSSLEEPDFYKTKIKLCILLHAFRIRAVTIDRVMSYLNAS
- T1 sequence (looked up) 2: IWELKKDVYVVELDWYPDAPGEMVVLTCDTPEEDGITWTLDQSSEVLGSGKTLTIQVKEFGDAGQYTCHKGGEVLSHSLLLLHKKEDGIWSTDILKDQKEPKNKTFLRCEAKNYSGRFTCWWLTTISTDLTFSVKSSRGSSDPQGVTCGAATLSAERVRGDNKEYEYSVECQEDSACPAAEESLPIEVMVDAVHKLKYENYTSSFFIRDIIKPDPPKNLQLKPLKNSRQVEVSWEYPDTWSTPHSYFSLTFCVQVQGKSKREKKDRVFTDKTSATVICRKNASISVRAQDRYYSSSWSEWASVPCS
- TEST PROTOCOL: SPR (BIAcore)
Catalogue of koff readings, one per entry.
The reply should contain only the number, in s⁻¹.

>  <BINDER>
73-G2 (antibody, V domains shown) VH: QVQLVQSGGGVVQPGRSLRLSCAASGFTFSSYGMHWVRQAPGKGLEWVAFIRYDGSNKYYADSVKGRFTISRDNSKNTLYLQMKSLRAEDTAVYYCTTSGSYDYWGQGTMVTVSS VL: SYVLTQPPSVSGTPGQRVTISCSGGRSNIGSNTVKWYQQLPGTAPKLLIYGNDQRPSGVPDRFSGSKSGTSASLAITGVQAEDEADYYCHTNDSGFTGSRVFGTGTKVTVLG

>  <koff / s⁻¹>
0.00398

$$$$
>  <BINDER>
43-E3 (antibody, V domains shown) VH: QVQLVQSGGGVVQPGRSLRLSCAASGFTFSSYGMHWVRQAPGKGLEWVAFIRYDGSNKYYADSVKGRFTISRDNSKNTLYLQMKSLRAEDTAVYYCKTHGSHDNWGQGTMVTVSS VL: SYVLTQPPSVSGTPGQRVTISCSGGRSNIGSNTVKWYQQLPGTAPKLLIYGNDQRPSGVPDRFSGSKSGTSASLAITGVQAEDEADYYCQSYDRGSHPAAEFGTGTKVTVLG

>  <koff / s⁻¹>
0.0008

$$$$

Let us examine a further case.
-- ask # get_value(readout='koff', item= 73-G3 (antibody, V domains shown) VH: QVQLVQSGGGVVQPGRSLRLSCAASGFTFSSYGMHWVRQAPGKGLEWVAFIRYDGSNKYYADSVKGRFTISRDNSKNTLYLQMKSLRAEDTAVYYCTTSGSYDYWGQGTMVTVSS VL: SYVLTQPPSVSGTPGQRVTISCSGGRSNIGSNTVKWYQQLPGTAPKLLIYGNDQRPSGVPDRFSGSKSGTSASLAITGVQAEDEADYYCHSYDTRFTGSRVFGTGTKVTVLG )
-- reply 0.0035
